Taken from PubChem BioAssay.

Here the recorded composite z-score is given for each entry.
- System: glycogen synthase kinase-3 (GSK3A per assay name; protocol says GSK3B)
- testName: GSK3 binders on small-molecule microarrays, primary screen, biochemical, small-molecule microarray, 635 nm fluorescence, GSK3A (AID 1103); further: the record names both GSK3A and GSK3B
- experimentalSetup: small-molecule microarray binding, fluorescence 635 nm; higher = more signal
Answer using only a numeral; do not append any unit.

CCCCC(=C=CC[C@@H](O)c1ccc(OCCO)cc1)C[C@@H](O)c1cc(Cl)cc(Cl)c1O : -0.167
COCCOC(=O)N1C(=O)[C@@]2(c3cc(C#CCNC(N)=O)ccc31)[C@H](c1ccccc1OCCO)N1[C@H](c3ccccc3)[C@H](c3ccccc3)OC(=O)[C@H]1[C@@H]2C(=O)Nc1nc2ccccc2s1 : 0.218
C/C=C/[C@@H](CCn1cc(CCO[Si](C(C)C)(C(C)C)C(C)C)nn1)[Si](C)(C)c1ccc(OC)cc1 : -0.918
O=c1n(-c2ccccc2)c(=O)n2n1CC(COc1ccccc1)=C1[C@@H](CCc3ccccc3)OB(O)C[C@@H]12 : 0.59
C=CCN1C(=O)[C@]2(O[C@H](CCn3cc([C@H](O)c4ccccc4)nn3)[C@@H]([Si](C)(C)c3ccc(OC)cc3)[C@@H]2C)c2cc(N3CCOC3=O)ccc21 : 0.387

// below: composite z-score requested for another compound
What measured composite z-score is associated with "CO[C@H]1O[C@H](CO)[C@@H](OC(=O)CCc2ccccc2)[C@@H]2OC(=O)[C@H](Cc3ccccc3)C/C=C/C[C@@H](Cc3ccccc3)C(=O)O[C@@H]12" on glycogen synthase kinase-3 (GSK3A per assay name; protocol says GSK3B)?
-1.24

---

- testName: cytotoxicity in PAX8-dependent RMG-1 cells, dose response, cell-based, cherry-pick (AID 687029);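 further: cells exposed to compound for 96 hours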
- experimentalSetup: RMG-1 viability, CellTiterGlo ATP luminescence, 96 h; series mostly up to 35 µM
Entries with a potency or affinity are not part of this list. The source made the active and inactive calls.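 How the source made its calls: active means signal drop whose fitted half-maximal concentration is at most twice the top valid dose, in every test run; inconclusive means mixed calls across runs, poor fit, or flat 30 to 70% inhibition; inactive means wrong direction, flat within 30%, or potency beyond limit.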
parameter: activity change, negative = inhibition

Reference set (5 entries):
C[C@@H]1CN([C@@H](C)CO)C(=O)Cc2cc(NS(=O)(=O)c3ccc(F)cc3)ccc2O[C@H]1CN(C)Cc1ccc(C(F)(F)F)cc1 : inactive
C[C@@H]1CN([C@H](C)CO)C(=O)c2cc(NS(=O)(=O)c3ccc(Cl)cc3)ccc2O[C@@H](C)CCCCO[C@H]1CN(C)S(=O)(=O)c1ccc(F)cc1 : inactive
C[C@@H]1CN([C@H](C)CO)C(=O)c2cc(NS(=O)(=O)c3ccccc3)ccc2O[C@@H](C)CCCCO[C@@H]1CN(C)CC1CCCCC1 : inactive
COC(=O)C12OCC34C(CC5C(C)=C(O)C(=O)CC5(C)C3C(O)C1O)OC(=O)C(OC(=O)C=C(C)C)C24 (stereo unspecified) : inactive
COc1ccc(OCCNC(=O)/C=C/c2ccc([N+](=O)[O-])cc2)cc1 : inactive

Record request: activity change, negative = inhibition value, item "O=C(Nc1ccc(F)cc1)c1nc(S(=O)(=O)Cc2ccccc2)ncc1Cl"
inactive

Record request: activity change, negative = inhibition value, item "C[C@H](CO)N1C[C@H](C)[C@@H](CN(C)C(=O)Cc2ccccc2)OCCCC[C@H](C)Oc2ccc(NC(=O)Nc3ccc(C(F)(F)F)cc3)cc2C1=O"
inactive

Record request: activity change, negative = inhibition value, item "CC1(C)CC(=O)c2sc(NC(=O)CCS(=O)(=O)c3ccccc3)nc2C1"
inactive

Record request: activity change, negative = inhibition value, item "C[C@H]1CCCCO[C@@H](CN(C)Cc2ccccc2)[C@@H](C)CN([C@@H](C)CO)C(=O)c2cc(NC(=O)Nc3ccc(C(F)(F)F)cc3)ccc2O1"
inactive

Record request: activity change, negative = inhibition value, item "C[C@@H]1CCCCO[C@H](CN(C)C(=O)Nc2ccc(C(F)(F)F)cc2)[C@@H](C)CN([C@@H](C)CO)C(=O)c2cc(NS(=O)(=O)c3cccs3)ccc2O1"
inactive
